# Tested on: sicklepod (Cassia obtusifolia, CASOB)
# ASSAY: Pre-emerge test, greenhouse herbicide activity screening
# Format: in vivo
# TEST CONTEXT: pre-emerge, rate 63 g ai/ha, phytotoxicity rating 0-100 at 14 days after application
Record form. Attribute: Pre-emerge Herbicidal Activity CASOB. Fill in for each entry.
One number for each entry.

A selection of reference data follows.
>  <COMPOUND>
Cc1ccccc1COC(=O)Nc1c(C)c(Cl)cc(F)c1-n1c(=O)cc(C(F)(F)F)n(C)c1=O [4-56]

>  <OBSERVED>
10

$$$$
>  <COMPOUND>
O=C(Nc1cc(Cl)ccc1N1C(=O)C2=C(CCCC2)C1=O)c1ccc2ccccc2c1 [8-36]

>  <OBSERVED>
10

$$$$
>  <COMPOUND>
Cc1nn(-c2c(F)cc(Cl)cc2NC(=O)c2ccc(F)cc2F)c(=O)n1C(F)F [Compound 6-23]

>  <OBSERVED>
0

$$$$
>  <COMPOUND>
Cc1c(Cl)cc(F)c(-n2c(=O)cc(C(F)(F)F)n(C)c2=O)c1NC(=O)OCc1ccc(Cl)cc1Cl [4-62]

>  <OBSERVED>
50

$$$$
>  <COMPOUND>
Cc1nn(-c2c(Cl)cc(Cl)cc2NC(=O)c2ccc(F)cc2F)c(=O)n1C(F)F [Compound 6-13]

>  <OBSERVED>
0

$$$$

Give one value of Pre-emerge Herbicidal Activity CASOB per listed compound.
1. COc1c(Cl)cc(F)c(N2C(=O)C3=C(CCCC3)C2=O)c1NC(=O)C=Cc1ccccc1 [8-31]
2. Cc1cccc(C)c1OC(=O)Nc1c(C)c(Cl)cc(F)c1-n1c(=O)cc(C(F)(F)F)n(C)c1=O [4-55]
3. COc1ccccc1COC(=O)Nc1c(C)c(Cl)cc(F)c1-n1c(=O)cc(C(F)(F)F)n(C)c1=O [4-58]

1. 0
2. 0
3. 70

###

Please provide measured Post-emerge Herbicidal Activity, phytotoxicity rating AMBEL for the entries that follow.
# System: common ragweed (Ambrosia artemisizfolia L., AMBEL)
# ASSAY: Post-emerge test, greenhouse herbicide activity screening
# Type: in vivo
# TEST CONTEXT: Rate 250 g ai/ha; rating scale 0-100 (0 no damage, 100 complete death); 14 days after application
Answers are plain numbers.

>  <MOLECULE>
COc1c(Cl)cc(F)c(-n2c(=O)cc(C(F)(F)F)n(C)c2=O)c1CC(C)(Cl)C(=O)OCC(C)C (centres unmarked) [14-40]

>  <OBSERVED>
100

$$$$
>  <MOLECULE>
CCCOC(=O)C(Cl)Cc1c(OC)c(Cl)cc(F)c1-n1c(=O)cc(C(F)(F)F)n(C)c1=O (single isomer, unassigned) [14-6]

>  <OBSERVED>
80

$$$$
>  <MOLECULE>
CCOC(=O)C(C)(Cl)Cc1c(OC)c(Cl)cc(F)c1-n1c(=O)cc(C(F)(F)F)n(C)c1=O (centres unmarked) [14-34]

>  <OBSERVED>
100

$$$$

For each of the items listed, what is its Post-emerge Herbicidal Activity, phytotoxicity rating AMBEL?
1. CCCCCCOC(=O)C(Cl)Cc1c(OC)c(Cl)cc(F)c1-n1c(=O)cc(C(F)(F)F)n(C)c1=O (single isomer, unassigned) [14-12]
2. COc1c(Cl)cc(F)c(-n2c(=O)cc(C(F)(F)F)n(C)c2=O)c1CC(C)(Cl)C(=O)OC(C)C (centres unmarked) [14-39]

1. 80
2. 50

###

# Tested on: common ragweed (Ambrosia artemisizfolia L., AMBEL)
# ASSAY: Post-emerge test, greenhouse herbicide activity screening
# Format: in vivo
# TEST CONTEXT: post-emerge, 250 g ai/ha, 14 days after application, rating scale 0-100
PROPERTY LABEL: phytotoxicity rating AMBEL
Answers are plain numbers.

>  <CHEMICAL SMILES>
Cn1c(C(F)(F)F)cc(=O)n(-c2ccc(Cl)cc2NC(=O)C2CC2)c1=O

>  <TGT>
common ragweed (Ambrosia artemisizfolia L., AMBEL)

>  <OBSERVED>
70

$$$$
>  <CHEMICAL SMILES>
COc1c(Cl)cc(F)c(-n2c(=O)cc(C(F)(F)F)n(C)c2=O)c1NC(=O)c1ccc2c(c1)OCO2

>  <TGT>
common ragweed (Ambrosia artemisizfolia L., AMBEL)

>  <OBSERVED>
100

$$$$
>  <CHEMICAL SMILES>
COc1c(Cl)cc(F)c(-n2c(=O)cc(C(F)(F)F)n(C)c2=O)c1NC(=O)c1ccc(I)cc1

>  <TGT>
common ragweed (Ambrosia artemisizfolia L., AMBEL)

>  <OBSERVED>
75

$$$$
>  <CHEMICAL SMILES>
COC(=O)N(C(=O)OC)c1c(OC)c(Cl)cc(F)c1-n1c(=O)cc(C(F)(F)F)n(C)c1=O

>  <TGT>
common ragweed (Ambrosia artemisizfolia L., AMBEL)

>  <OBSERVED>
30

$$$$

Answer for every listed entry: what is its phytotoxicity rating AMBEL? The entries follow.
1. COc1c(Cl)cc(F)c(-n2c(=O)cc(C(F)(F)F)n(C)c2=O)c1NC(=O)c1cccc(Cl)c1
2. COc1c(Cl)cc(F)c(-n2c(=O)cc(C(F)(F)F)n(C)c2=O)c1N(C(=O)c1ccc(C(F)(F)F)cc1)C(=O)c1ccc(C(F)(F)F)cc1
3. COc1c(Cl)cc(F)c(-n2c(=O)cc(C(F)(F)F)n(C)c2=O)c1NC(=O)c1ccc(CCl)cc1
4. COc1c(Cl)cc(F)c(-n2c(=O)cc(C(F)(F)F)n(C)c2=O)c1NC(=O)c1ccc(F)cc1
5. COc1c(Cl)cc(F)c(-n2c(=O)cc(C(F)(F)F)n(C)c2=O)c1NC(=O)c1cnc2ccccc2n1
6. Cn1c(C(F)(F)F)cc(=O)n(-c2ccc(C(N)=S)cc2NC(=O)c2ccc3ccccc3c2)c1=O

1: 100; 2: 85; 3: 95; 4: 100; 5: 100; 6: 100

GET /values?readout=phytotoxicity rating AMBEL&item= `COc1c(Cl)cc(F)c(-n2c(=O)cc(C(F)(F)F)n(C)c2=O)c1NC(=O)c1ccccc1F` 95

###

Give measured Post-emerge Herbicidal Activity RICE (crop damage) for each item. Keep answers brief.
# Tested on: upland rice (Oryza sp., var. Tebonnet, RICE)
# ASSAY: Post-emerge test, crop safety
# Assay type: in vivo
# TEST CONTEXT: 250 g ai/ha; phytotoxicity rating 0-100 (0 no damage, 100 complete death), 14 days after application

For each listed entry, give its Post-emerge Herbicidal Activity RICE (crop damage).
1. COc1c(Cl)cc(F)c(-n2c(=O)cc(C(F)(F)F)n(C)c2=O)c1NC(=O)c1cccc(C)c1
2. Cc1c(Cl)cc(F)c(-n2c(=O)cc(C(F)(F)F)n(C)c2=O)c1N
3. COc1c(Cl)cc(F)c(-n2c(=O)cc(C(F)(F)F)n(C)c2=O)c1NC(=O)C(F)(F)F

1. 95
2. 60
3. 5

I'd like to know its Post-emerge Herbicidal Activity RICE (crop damage). The molecule in question is `C#CCOc1c(Cl)cc(F)c(-n2c(=O)cc(C(F)(F)F)n(C)c2=O)c1N` 80

###

Kindly supply the reported phytotoxicity rating RICE values for the records listed here.
# Tested on: upland rice (Oryza sp., var. Tebonnet, RICE)
# ASSAY: Post-emerge test, crop safety
# Assay type: in vivo
# TEST CONTEXT: post-emerge, 63 g ai/ha, 14 days after application, rating scale 0-100
Give bare numbers.

Here's what some known entries look like.
>  <CHEMICAL SMILES>
COc1c(Cl)cc(F)c(-n2c(=O)cc(C(F)(F)F)n(C)c2=O)c1NC(=O)c1cccnc1

>  <phytotoxicity rating RICE>
40

$$$$
>  <CHEMICAL SMILES>
COc1c(Cl)cc(F)c(-n2c(=O)cc(C(F)(F)F)n(C)c2=O)c1NC(=O)c1ccc(I)cc1

>  <phytotoxicity rating RICE>
50

$$$$
>  <CHEMICAL SMILES>
COc1c(Cl)cc(F)c(-n2c(=O)cc(C(F)(F)F)n(C)c2=O)c1NC(=O)c1cnc2ccccc2n1

>  <phytotoxicity rating RICE>
0

$$$$

Would you kindly share the measured phytotoxicity rating RICE for `Cn1c(C(F)(F)F)cc(=O)n(-c2c(F)cc(Cl)c(OCC#N)c2NC(=O)CCc2ccccc2)c1=O` ? 40

###

# Test system: redroot pigweed (Amaranthus retroflexus, AMARE)
# ASSAY: Post-emerge test, greenhouse herbicide activity screening
# Type: in vivo
# TEST CONTEXT: post-emerge, 250 g ai/ha, 14 days after application, rating scale 0-100
PROPERTY LABEL: phytotoxicity rating AMARE
Answers are plain numbers.

Study these solved cases before continuing.
>  <COMPOUND>
COc1c(Cl)cc(F)c(-n2c(=O)cc(C(F)(F)F)n(C)c2=O)c1NC(=O)C=Cc1ccccc1

>  <phytotoxicity rating AMARE>
100

$$$$
>  <COMPOUND>
COc1c(Cl)cc(F)c(-n2c(=O)cc(C(F)(F)F)n(C)c2=O)c1NC(=O)c1ccccc1Cl

>  <phytotoxicity rating AMARE>
100

$$$$
>  <COMPOUND>
Cc1cccc(C)c1OC(=O)Nc1c(C)c(Cl)cc(F)c1-n1c(=O)cc(C(F)(F)F)n(C)c1=O

>  <phytotoxicity rating AMARE>
80

$$$$
>  <COMPOUND>
COc1c(Cl)cc(F)c(-n2c(=O)cc(C(F)(F)F)n(C)c2=O)c1NC(=O)CCc1ccccc1

>  <phytotoxicity rating AMARE>
100

$$$$

Go through the list and state phytotoxicity rating AMARE for each entry.
1. COc1c(Cl)cc(F)c(-n2c(=O)cc(C(F)(F)F)n(C)c2=O)c1NC(=O)C=Cc1ccccc1Cl
2. COc1c(Cl)cc(F)c(-n2c(=O)cc(C(F)(F)F)n(C)c2=O)c1NC(=O)OCc1ccc(Cl)c(Cl)c1
3. COc1c(Cl)cc(F)c(-n2c(=O)cc(C(F)(F)F)n(C)c2=O)c1NC(=O)OC(C)c1ccccc1 (stereo not shown)
4. COc1c(Cl)cc(F)c(-n2c(=O)cc(C(F)(F)F)n(C)c2=O)c1NC(=O)OCc1ccc(F)cc1

1: 100; 2: 100; 3: 95; 4: 100

The following compounds each have a reported value; give each one's phytotoxicity rating AMARE.
1. COc1c(Cl)cc(F)c(-n2c(=O)cc(C(F)(F)F)n(C)c2=O)c1NC(=O)COc1ccccc1
2. Cn1c(C(F)(F)F)cc(=O)n(-c2c(F)cc(Cl)c(OCC#N)c2NC(=O)CCc2ccccc2)c1=O
3. COC(=O)Nc1c(OC)c(Cl)cc(F)c1-n1c(=O)cc(C(F)(F)F)n(C)c1=O
4. COc1c(Cl)cc(F)c(-n2c(=O)cc(C(F)(F)F)n(C)c2=O)c1NC(=O)NCc1ccccc1
5. COc1c(Cl)cc(F)c(-n2c(=O)cc(C(F)(F)F)n(C)c2=O)c1NC(=O)OCc1ccc2ccccc2c1
6. COc1c(Cl)cc(F)c(-n2c(=O)cc(C(F)(F)F)n(C)c2=O)c1NC(=O)OCc1cc(C)cc(C)c1

1: 100; 2: 100; 3: 95; 4: 100; 5: 100; 6: 100

Give one value of phytotoxicity rating AMARE per listed compound.
1. COc1c(Cl)cc(F)c(-n2c(=O)cc(C(F)(F)F)n(C)c2=O)c1NC(=O)OCc1ccccc1[N+](=O)[O-]
2. COc1c(Cl)cc(F)c(-n2c(=O)cc(C(F)(F)F)n(C)c2=O)c1NC(=O)OCc1ccccn1

1: 100; 2: 100
